Tested on: CP269
Experiment: qHTS profiling for inhibitors of Plasmodium falciparum proliferation (AID 504749); further: nearly all actives have a fitted effect of over 60% in size
Conditions: P. falciparum in erythrocytes, SYBR Green DNA, 72 h; series mostly up to 28.7 µM
Results filed as inconclusive are left out. The source made the active and inactive calls. The call rests on the fitted dose curve; in most records, active means well fitted inhibition curve with a large enough effect; inconclusive means small, poorly fitted or top-dose-only effect; inactive means flat fitted curve, though single readings scatter.
Your answer must be one of the following: active, inactive

Below, 3 molecules whose answers are already recorded.
>>> assigned_label("C[C@@H](Cc1ccc(O)cc1)NC[C@@H](O)c1cc(O)cc(O)c1")
"inactive"
>>> assigned_label("C[N+]1(C)C2CC[C@H]1CC(OC(=O)[C@@H](CO)c1ccccc1)C2 (some centres undefined)")
"inactive"
>>> assigned_label("C[C@@H]1O[C@@H](O[C@H]2C[C@@H](O)[C@@]3(CO)[C@H]4[C@H](O)C[C@]5(C)[C@@H](C6=CC(=O)OC6)CC[C@]5(O)[C@H]4CC[C@@]3(O)C2)[C@@H](O)[C@H](O)[C@H]1O")
"inactive"

Could you now consider this next molecule?
Q: Which outcome was assigned to "C=C[C@@H]1CN2CC[C@H]1C[C@H]2[C@H](O)c1ccnc2ccccc12" in this test?
Result: active

* * *

Test: qHTS assay for small molecule agonists of retinoid X receptor alpha signaling (AID 588544)
Settings: HEK293T RXRa-UAS-bla, beta-lactamase reporter, 18 h; 530 nm emission
Inconclusive results are not listed.
Measured max response values are reported for all entries that follow.
Give the number; % is assumed, so skip it.

Recorded results for 3 molecules are shown here.
>>> observed_measurement("COc1c(C(C)(C)C)cc([N+](=O)[O-])c(C)c1[N+](=O)[O-]")
-3.49
>>> observed_measurement("COc1ccccc1N")
-8.71
>>> observed_measurement("CCOS(C)(=O)=O")
-9.22

Q: Record request: max response value, item "Cc1ccc(OP(=O)(Oc2ccc(C)cc2)Oc2ccc(C)cc2)cc1"
Result: -17.7

Q: Quick check: max response of "C/C=C/CC#N" ?
Result: -10.7

Q: Report max response for "O=[N+]([O-])/C=C/c1ccccc1" please.
Result: -4.59

Q: Bench note: what max response did "OCCOCCO" show?
Result: -9.96

Q: Report max response for "c1ccc(Nc2ccc(Nc3ccccc3)cc2)cc1" please.
Result: 0.613

* * *

Biological target: Peroxisome proliferator-activated receptor delta (Homo sapiens) (UniProt Q03181)
Sequence (Q03181 whole entry, looked up): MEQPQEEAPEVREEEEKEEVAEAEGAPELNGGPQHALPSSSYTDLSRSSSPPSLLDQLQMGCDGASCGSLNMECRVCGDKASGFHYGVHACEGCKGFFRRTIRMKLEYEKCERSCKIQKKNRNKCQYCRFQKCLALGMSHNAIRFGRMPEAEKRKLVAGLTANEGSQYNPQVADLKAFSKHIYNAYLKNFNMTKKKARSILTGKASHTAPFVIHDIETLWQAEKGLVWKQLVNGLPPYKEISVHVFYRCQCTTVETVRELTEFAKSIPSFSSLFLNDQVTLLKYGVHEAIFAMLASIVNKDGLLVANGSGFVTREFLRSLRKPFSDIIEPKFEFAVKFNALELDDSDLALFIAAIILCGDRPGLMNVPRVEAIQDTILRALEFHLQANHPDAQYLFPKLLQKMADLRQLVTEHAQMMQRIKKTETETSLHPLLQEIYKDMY
Test: qHTS assay for small molecule antagonists of peroxisome proliferator-activated receptor delta signaling (AID 588535)
Settings: HEK293T PPARd-UAS-bla, beta-lactamase FRET ratio, 18 h; series mostly up to 76.7 µM
From the text: NIH Chemical Genomics Center [NCGC] U.S. Environmental Protection Agency [EPA] National Institutes of Environmental Health Sciences [NIEHS] National Toxicology Program [NTP] NCGC Assay Overview The Peroxisome proliferator-activated receptors (PPARs) are lipid-activated transcription factors of the nuclear receptor superfamily with three distinct subtypes namely PPAR alpha, PPAR delta (also called PPAR beta) and PPAR gamma. […]
Inconclusive results are not listed. Active and inactive are the calls of the source. The call rests on the fitted dose curve; in most records, active means well fitted inhibition curve with a large enough effect in the signal ratio, with a control signal flat (not every such curve was filed as active); inconclusive means small, poorly fitted or top-dose-only effect, or effect the other way, or a change in a side signal; inactive means no such curve, though single readings can be large or run the other way; the % refers to the signal ratio.
endpoint-label: outcome

Example entries and their recorded answers appear below.
>>> observed_measurement("ClC=CCl")
"inactive"
>>> observed_measurement("N#CC(Br)Br")
"inactive"
>>> observed_measurement("COc1ccc(C=O)cc1")
"inactive"
>>> observed_measurement("Nc1cc(Cl)cc(C(=O)O)c1Cl")
"inactive"
>>> observed_measurement("Cc1ccc2c(C)cccc2c1")
"inactive"
>>> observed_measurement("O=C(O)c1cccc(Cl)c1")
"inactive"

Q: Recorded outcome of "O=[N+]([O-])c1cccc2c([N+](=O)[O-])cccc12" , please.
Result: inactive

Q: What value of outcome has been reported for the following compound? "ClC(Cl)c1ccccc1"
Result: inactive

Q: Reported outcome, compound "CCN(N=O)C(N)=O" : ____
Result: inactive

Q: May I ask what outcome has been recorded for "Nc1cc(Cl)cc(Cl)c1" ?
Result: inactive

Q: Report outcome for "Nc1ccc(Oc2ccc(N)cc2)cc1" please.
Result: inactive

Q: I would be grateful if you could share the reported outcome for "ClCCOCCCl" .
Result: inactive

Q: Quick one: outcome of "Nc1cccc(Cl)c1" ?
Result: inactive

Q: Entry "CC(C)(Cl)Cl" : reported outcome = ?
Result: inactive

* * *

Assay: qHTS assay for small molecule disruptors of the mitochondrial membrane potential - 5 hr assay (AID 651755); further: on the % scale 0 is the no-effect control and ±100 the full control effect; nearly all actives have a fitted effect of over 40% in size
Conditions: JC-1-type ratio dye; series mostly up to 92.2 µM
From the text: National Center for Advancing Translational Sciences [NCATS] NIH Chemical Genomics Center [NCGC] National Institutes of Environmental Health Sciences [NIEHS] National Toxicology Program [NTP] Mitochondrial membrane potential (MMP), one of the parameters for mitochondrial function, is generated by mitochondrial electron transport chain that creates an electrochemical gradient by a series of redox reactions. […] The dye accumulates in the mitochondria of healthy cells as aggregates, with red fluorescence. […]
Results filed as inconclusive are left out. Activity calls are given as the source filed them. Calls come from the whole dose curve.
Tick one outcome: active, inactive

Q: Please share the test call associated with "O=[N+]([O-])c1c(Cl)c(Cl)c(Cl)c(Cl)c1Cl" .
Result: inactive

Q: GET /call?item= "C/C=C/CC#N" returns the recorded outcome of this test.
Result: inactive

Q: Recorded call for "CCCCC#N" ?
Result: inactive

* * *

Experiment: qHTS assay for cell viability of the p53RE-bla HCT-116 cell line (AID 743292); further: on the % scale 0 is the no-effect control and ±100 the full control effect; nearly all actives have a fitted effect of over 55% in size
Conditions: p53RE-bla HCT-116 viability, ATP luminescence, 16 h; series mostly up to 95 µM
Description: U.S. Tox21 Program National Center for Advancing Translational Sciences [NCATS] NIH Chemical Genomics Center [NCGC] U.S. Environmental Protection Agency [EPA] National Institutes of Environmental Health Sciences [NIEHS] National Toxicology Program [NTP] […] Tox21 Assay Protocol Summary: Cell viability after compound treatment was measured using a luciferase-coupled ATP quantitation assay (CellTiter-Glo viability assay, Promega, Madison, WI) in CellSensor p53RE-bla HCT-116 cell line (Invitrogen). […]
Inconclusive results are not listed. The source made the active and inactive calls. Calls come from the whole dose curve; as a rule, active = well fitted cell-killing curve with a large enough effect; inconclusive = small, poorly fitted or top-dose-only effect, or effect the other way; inactive = flat fitted curve, though single readings scatter.
endpoint-label: outcome

>>> observed_measurement("O=[N+]([O-])c1cc(Cl)c(Cl)cc1Cl")
"inactive"
>>> observed_measurement("CN(C)C(=O)Nc1cccc(C(F)(F)F)c1")
"inactive"
>>> observed_measurement("O=C(O)C(Br)Br")
"inactive"

* * *

Tested on: TAB109
Assay: qHTS profiling for inhibitors of Plasmodium falciparum proliferation (AID 504749); further: nearly all actives have a fitted effect of over 60% in size
Conditions: P. falciparum in erythrocytes, SYBR Green DNA, 72 h; series mostly up to 28.7 µM
Inconclusive results are not listed. Activity calls are given as the source filed them. Calls come from the whole dose curve; as a rule, active = well fitted inhibition curve with a large enough effect; inconclusive = small, poorly fitted or top-dose-only effect; inactive = flat fitted curve, though single readings scatter.
Permitted responses: active, inactive

See these solved cases before continuing.
>>> assigned_label("C[C@@H](Cc1ccc(O)cc1)NC[C@@H](O)c1cc(O)cc(O)c1")
"inactive"
>>> assigned_label("C=C[C@@H]1CN2CC[C@H]1C[C@H]2[C@H](O)c1ccnc2ccccc12")
"active"

Q: Just curious, what result did C[N+]1(C)C2CC[C@H]1CC(OC(=O)[C@@H](CO)c1ccccc1)C2 (some centres undefined) get here?
Result: inactive

Q: Fill in: this test's call for C[N+]1([O-])[C@H]2CC[C@H]1CC(OC(=O)[C@@H](CO)c1ccccc1)C2 (some centres undefined) is ___
Result: inactive

* * *

Test: Cellular Toxicity (caspase-3) Renal Proximal Tubule (AID 667);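 further: cells exposed to compound for 16 hours at 37 °C before detection; 0% = DMSO basal and 100% = 10 µM staurosporine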
Details: renal proximal tubule cells; series mostly up to 91.7 µM
Description: NIH Chemical Genomics Center [NCGC] NIH Molecular Libraries Screening Centers Network [MLSCN] National Institutes of Environmental Health Sciences [NIEHS] National Toxicology Program [NTP] We have developed a 1536-well cell-based assay for quantitative high throughput screening (qHTS) against a number of cell lines to determine in vitro caspase 3/7 activity of small molecules. […] 8. Detection; Luminescence; Viewlux plate reader […]
Active and inactive are the calls of the source. The call rests on the fitted dose curve; in most records, active means well fitted activation curve with a large enough effect; inconclusive means small, poorly fitted or top-dose-only effect, or effect the other way; inactive means flat fitted curve, though single readings scatter.
endpoint-label: outcome

>>> observed_measurement("CN(C)c1ccc(N)cc1")
"inactive"
>>> observed_measurement("O=[N+]([O-])c1ccccc1-c1ccccc1")
"inactive"
>>> observed_measurement("c1ccc(C2CO2)cc1 (stereo not drawn)")
"inactive"
>>> observed_measurement("O=C(Cc1ccccc1)OCc1ccccc1")
"inactive"
>>> observed_measurement("O=NN1CCCCC1")
"inactive"

Now look at this entry.
Q: Can you look up the measured outcome of "CCC/C=N/O" for me?
Result: inactive

* * *

Assay: NFAT Signaling Pathway (AID 444);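 further: carbachol stimulus at about its EC50 of 1 µM final; on the % scale 0 is the no-effect control and ±100 the full control effect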
Settings: Jurkat NFAT-bla M1, carbachol, beta-lactamase ratio, 5 h; at 7.69 µM (top of the series) unless noted
Results filed as inconclusive are left out.
Reported activity change, negative = inhibition values follow for various compounds
Give a bare numeral; the unit % is implied.

Recorded results for 5 compounds are shown here.
>>> observed_measurement("c1ccc(CCN2CCOCC2)nc1")
11.7
>>> observed_measurement("N[C@@H](CP(=O)(O)O)C(=O)O")
2.91
>>> observed_measurement("O=C(O)c1cc(N=Nc2ccc([As](=O)(O)O)cc2)ccc1O")
6.3
>>> observed_measurement("N[C@H](Cc1ccccc1)c1nn[nH]n1")
1.74
>>> observed_measurement("C[C@]12CN(CC[N+](C)(C)C)C[C@]1(C)[C@@H]1CC[C@@H]2O1")
10.2

Q: Reported activity change, negative = inhibition, compound ClCC[N+]12CC[N+](CCCl)(CC1)C2 (tested in a mixture with another compound) : ____
Result: -23.8
